- test description: NCI Yeast Anticancer Drug Screen. Data for the rad50 strain (AID 155);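 also: 0% = growth of vehicle-only cultures of the same strain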
- test conditions: S. cerevisiae rad50 strain growth inhibition; at 50.0 µM; hits give high values
This is part of a sample that, as a whole, favours compounds with a hit. Of some 79,000 tested, about 15% had one in any assay.
measured quantity: growth inhibition (%)
Just the number in %, nothing appended.

molecule	measured quantity	result units	measured result
CSc1nc2cc(Cl)ccc2c2c1C=NCCN2	growth inhibition	%	28.6

Ask: Fill in reported growth inhibition for this entry: "ClCCN(CCCl)c1ccc2c(c1)Cc1cc(Br)ccc1-2"
Reply: 15

Ask: Fill in reported growth inhibition for this entry: "Cc1cccc(-c2cc(Cl)c3cc(S(=O)(=O)F)ccc3n2)c1"
Reply: -1.1

Ask: Fill in reported growth inhibition for this entry: CN1CCC(O)(c2ccccc2)C(C(O)c2ccccc2)C1 (stereo not given)
Reply: 5.2

Ask: Fill in reported growth inhibition for this entry: "CN(C)Cc1c[nH]c2ccc(F)cc12"
Reply: -27

###

- test description: NCI Yeast Anticancer Drug Screen. Data for the mec2-1 strain (AID 157)
- test conditions: S. cerevisiae mec2-1 strain, at 50.0 µM, hits give high values
Compounds without any hit were thinned out: in the full panel of roughly 79,000, 15% have a hit.
Tick Condition met if growth inhibition is 10% or greater. Tick Condition not met if growth inhibition is less than 10%.

Some entries whose results are on file:
compound	discrete label
CC1=CC(=O)[C@@H](O)[C@]2(C)[C@H]3[C@@]4(O)OC[C@]35[C@H]([C@@H](C)[C@H]4O)[C@@H](O)C(=O)O[C@@H]5C[C@@H]12	Condition not met
CCOP(=O)(OCC)/C(C#N)=C/c1cccc(OC)c1	Condition met
CCOP(=O)(O)CP(=O)(O)OCC.CCOP(=O)(O)CP(=O)(O)OCC.[Cr]	Condition not met
O=[Se](=O)(O)O	Condition not met
CN=NNc1nc[nH]c1C(N)=O	Condition met

Continue with the compound presented below.
Ask: Exam item: decide whether the reported growth inhibition for COc1ccc(N2CC=C(c3ccccc3)OP2(=O)N(CCCl)CCCl)cc1 (stereo unspecified) is at least 10%.
Reply: Condition not met

###

- test description: NCI Yeast Anticancer Drug Screen. Data for the bub3 strain (AID 167)
- test conditions: S. cerevisiae bub3 mutant strain, at 50.0 µM
- Protocol: Growth inhibition of yeast strains with defined genetic alterations is measured as a screen for potential anti-cancer activity. Selected strains with alterations in DNA damage repair or cell cycle control were exposed to compounds and growth inhibition was measured relative to vehicle treated controls. The strain used in this assay is bub3
This is part of a sample that, as a whole, favours compounds with a hit. Of some 79,000 tested, about 15% had one in any assay. The source made the active and inactive calls. No stated cut-off is given here; in the data, active means growth inhibition above about 70%; inactive means the rest.
Allowed answers: active, inactive

compound	discrete label
COC(=O)C(CCC(=O)O)NC(=O)OCc1ccccc1 (stereo not drawn)	inactive

Ask: I would be grateful if you could indicate the recorded call for "CN(C)CC#CCN(C)C" .
Reply: inactive

Ask: I would be grateful if you could indicate the recorded call for "O=C(O)c1ccccc1N(CCO)CCCl" .
Reply: inactive

Ask: I would be grateful if you could indicate the recorded call for C(=C\c1cccs1)/CN1CCC2CCC(C2)C1 (stereo not drawn) .
Reply: inactive

Ask: I would be grateful if you could indicate the recorded call for "[NH2-].[NH2-].[NH2-].[NH2-].[NH2-].[NH2-].[Ru+6]" .
Reply: inactive

Ask: I would be grateful if you could indicate the recorded call for "Nc1nnnn1CCO" .
Reply: inactive

###

- test description: NCI Yeast Anticancer Drug Screen. Data for the mec2-1 strain (AID 157)
- test conditions: S. cerevisiae mec2-1 strain, at 50.0 µM
Compounds without any hit were thinned out: in the full panel of roughly 79,000, 15% have a hit. Calls of active or inactive are those of the source. No stated cut-off is given here; in the data, active means growth inhibition above about 70%; inactive means the rest.
Allowed answers: active, inactive

Ask: I would be grateful if you could indicate the recorded call for "[C-]#[O+].[C-]#[O+].[C-]#[O+].[C-]#[O+].[C-]#[O+].[CH3][Sn]([Cl])[c]1ccccc1.[Mn]" .
Reply: active

Ask: I would be grateful if you could indicate the recorded call for "O=C(COc1ccccc1Cl)Nc1ccc[n+](Cc2ccc(S(=O)(=O)F)cc2)c1" .
Reply: inactive

Ask: I would be grateful if you could indicate the recorded call for "O=C(CCN1CC=C(c2ccccc2)CC1)c1ccc(F)cc1" .
Reply: inactive

Ask: I would be grateful if you could indicate the recorded call for "[Cu+2].[NH-]c1ccccc1C(=O)O.[NH-]c1ccccc1C(=O)O" .
Reply: inactive

Ask: I would be grateful if you could indicate the recorded call for CC1=CP(=O)(OC(C)C)CC(C)=C1Cl (stereo not drawn) .
Reply: inactive

Ask: I would be grateful if you could indicate the recorded call for "CCCCOP(O)(=S)OCCCC.[Tb]" .
Reply: inactive

Ask: I would be grateful if you could indicate the recorded call for CCC1(C(C)=O)CN2CCc3cc(OC)c(OC)cc3C2N2CCc3ccc(OC)c(OC)c3C21 (stereo not drawn) .
Reply: active

Ask: I would be grateful if you could indicate the recorded call for "Cc1cc([N+](=O)[O-])c(N)c([N+](=O)[O-])c1" .
Reply: inactive

Ask: I would be grateful if you could indicate the recorded call for O=NN1CCCCCC1C(=O)O (stereo not drawn) .
Reply: inactive

Ask: I would be grateful if you could indicate the recorded call for COc1ccc2c(c1)C1(C)CCN(C)CC(C1)C2O (stereo not drawn) .
Reply: inactive

Ask: I would be grateful if you could indicate the recorded call for "C[CH2][Pb]([Br])([CH2]C)[CH2]C" .
Reply: inactive

Ask: I would be grateful if you could indicate the recorded call for "Cc1ccc(Cl)c2c1CC(=[N+]=[N-])C2=O" .
Reply: inactive

Ask: I would be grateful if you could indicate the recorded call for "Cc1cccc(OP(=O)(c2ccccc2)c2ccccc2)c1" .
Reply: inactive

Ask: I would be grateful if you could indicate the recorded call for CC1C(C)(C)P(=O)(Oc2ccc3ccccc3c2)C1(C)C (stereo not drawn) .
Reply: inactive

Ask: I would be grateful if you could indicate the recorded call for CS(=N)(=O)CCC(N)C(=O)O (stereo not drawn) (tested in a mixture with another compound) .
Reply: inactive

Ask: I would be grateful if you could indicate the recorded call for FC1(F)[Se]C2C3CCC(C3)C2C1(F)F (stereo not drawn) .
Reply: inactive

Ask: I would be grateful if you could indicate the recorded call for "COC(=O)[C@H]1[C@H]2CCOC1(c1cc(OC)c(OC)c(OC)c1)c1cc3c(cc1[C@H]2O)OCO3" .
Reply: inactive

Ask: I would be grateful if you could indicate the recorded call for "[CH3][Sb]1([Cl])[CH2]CCC[CH2]1" .
Reply: inactive

Ask: I would be grateful if you could indicate the recorded call for NC1Cc2cc(O)ccc2C1=O (stereo not drawn) .
Reply: inactive

Ask: I would be grateful if you could indicate the recorded call for "C=Cn1nnnc1N" .
Reply: inactive

Ask: I would be grateful if you could indicate the recorded call for "OCCCNCc1cccnc1" .
Reply: inactive

###

- test description: NCI Yeast Anticancer Drug Screen. Data for the mlh1 rad18 strain (AID 175)
- test conditions: S. cerevisiae mlh1 rad18 strain growth inhibition; at 50.0 µM; hits give high values
The panel holds about 79,000 compounds, 15% with a hit somewhere; the sample as a whole holds those more often.
measured quantity: growth inhibition (%)
Just the number in %, nothing appended.

Before answering, review these 3 worked examples.
compound	growth inhibition, %
COS(=O)(=O)c1ccc(C)cc1	-3.75
CCOP(=O)(OCC)C(N)Cc1c[nH]c2ccccc12 (stereo not drawn)	4.9
ICc1nc2ccccc2[nH]1	6.1

// below: growth inhibition requested for another compound
Ask: Fill in reported growth inhibition for this entry: CC(Cc1ccc(Cl)cc1Cl)NO (stereo not drawn)
Reply: -2.15

###

// values below are reported growth inhibition
- test description: NCI Yeast Anticancer Drug Screen. Data for the rad50 strain (AID 155);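 also: 0% = growth of vehicle-only cultures of the same strain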
- test conditions: S. cerevisiae rad50 strain growth inhibition; at 50.0 µM; hits give high values
The panel holds about 79,000 compounds, 15% with a hit somewhere; the sample as a whole holds those more often. Calls of active or inactive are those of the source. Rule as the data show it: active = growth inhibition above about 70%; inactive = the rest.

Before answering, review these 4 worked examples.
molecule	growth inhibition
O=C(CCc1ccccc1)Nc1ccc(Cl)cc1C(=O)c1ccccc1	-0.85% (inactive)
C[N+](C)(Cc1ccccc1[N+](=O)[O-])c1ccc(N(CCCl)CCCl)cc1	-7.8% (inactive)
S=C(N=Nc1ccccc1)NNc1ccccc1.[Cu+2]	-17.4% (inactive)
COc1ccc(C(O)(C(=O)O)c2ccc(OC)c(OC)c2)cc1OC	5.6% (inactive)

Ask: Fill in reported growth inhibition for this entry: CCCOP1(=O)C=C(C)C(Cl)=C(C)C1 (stereo not given)
Reply: 33.5% (inactive)

Ask: Fill in reported growth inhibition for this entry: NC(Cc1ccccc1)c1cccc2c1CCCC2 (stereo not given)
Reply: 7.35% (inactive)
